- TESTED_ON: peripheral anionic site (PAS) of Electrophorus electricus AChE (EeAChE) (Electrophorus electricus)
- Construct: purchased Sigma-Aldrich type VI-S
- Sequence (O42275 24-633): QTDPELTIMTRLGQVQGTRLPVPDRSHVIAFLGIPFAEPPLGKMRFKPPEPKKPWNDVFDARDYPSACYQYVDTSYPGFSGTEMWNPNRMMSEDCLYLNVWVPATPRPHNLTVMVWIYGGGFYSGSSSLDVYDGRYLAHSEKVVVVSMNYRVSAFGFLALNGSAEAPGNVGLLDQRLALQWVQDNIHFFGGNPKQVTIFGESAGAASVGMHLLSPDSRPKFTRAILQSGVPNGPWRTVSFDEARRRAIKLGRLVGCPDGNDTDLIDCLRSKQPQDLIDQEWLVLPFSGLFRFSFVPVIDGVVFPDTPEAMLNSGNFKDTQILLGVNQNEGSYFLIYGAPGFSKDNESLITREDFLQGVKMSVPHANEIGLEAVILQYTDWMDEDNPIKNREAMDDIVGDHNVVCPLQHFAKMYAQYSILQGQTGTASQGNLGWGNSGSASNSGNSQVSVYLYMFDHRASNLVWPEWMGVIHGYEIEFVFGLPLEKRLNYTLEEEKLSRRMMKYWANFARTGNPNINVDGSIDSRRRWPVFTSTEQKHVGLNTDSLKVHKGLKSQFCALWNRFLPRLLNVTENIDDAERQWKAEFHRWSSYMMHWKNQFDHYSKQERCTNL
- EXPERIMENTAL_DETAILS: Propidium displacement from the EeAChE PAS (fluorescence)
- Assay type: binding
- MEASUREMENT_SETUP: compound concentration 20 µM; EeAChE 7 μM, propidium iodide 8 μM, Tris-HCl pH 8.0; n.a. = not active
Measured Propidium Displacement, (%) values are reported for all entries that follow.
Give just the numeric value; % need not be written.

molecular_string=[Fe+2].c1cc[cH-]c1.c1ccc2nc(-[c-]3cccc3)ccc2c1 units_label=% value_reported=10.2

**Q:** // Propidium Displacement, (%) lookup, key: `C=C[c-]1cccc1.[Fe+2].c1ccc(-[c-]2cccc2)nc1`
**A:** 9.6

**Q:** Same question, `C=C[c-]1cccc1.[Fe+2].c1ccc2c(-[c-]3cccc3)c3ccccc3nc2c1` this time
**A:** 10.4

**Q:** Same question, `[Fe+2].c1cc[cH-]c1.c1ccc2c(-[c-]3cccc3)c3ccccc3nc2c1` this time
**A:** 11.2

**Q:** Same question, `C=C(C)[c-]1cccc1.[Fe+2].c1ccc2nc(-[c-]3cccc3)ccc2c1` this time
**A:** 11.5

* * *

- TESTED_ON: equine (Equus caballus) serum BChE (EcBChE) (Equus caballus)
- Construct: equine (Equus caballus) serum BChE (EcBChE); purchased Sigma-Aldrich; host or cells: horse serum
- Sequence (P81908 whole entry): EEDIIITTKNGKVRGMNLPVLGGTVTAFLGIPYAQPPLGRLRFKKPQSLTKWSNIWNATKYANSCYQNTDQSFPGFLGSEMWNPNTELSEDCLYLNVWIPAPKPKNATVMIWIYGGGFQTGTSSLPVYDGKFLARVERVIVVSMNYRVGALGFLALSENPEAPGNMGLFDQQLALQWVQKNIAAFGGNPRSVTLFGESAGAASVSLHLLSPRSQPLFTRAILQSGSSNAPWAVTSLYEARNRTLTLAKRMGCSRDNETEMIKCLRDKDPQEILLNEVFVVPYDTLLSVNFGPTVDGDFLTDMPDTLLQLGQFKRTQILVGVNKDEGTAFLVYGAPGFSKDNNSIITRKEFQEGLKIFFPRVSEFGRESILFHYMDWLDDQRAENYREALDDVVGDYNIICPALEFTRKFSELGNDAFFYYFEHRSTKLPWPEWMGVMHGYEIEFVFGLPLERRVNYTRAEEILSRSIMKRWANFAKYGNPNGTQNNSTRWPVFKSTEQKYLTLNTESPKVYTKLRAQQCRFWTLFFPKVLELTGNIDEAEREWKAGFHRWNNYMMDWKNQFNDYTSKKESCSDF
- EXPERIMENTAL_DETAILS: Inhibition of EcBChE (spectrophotometric, BTCh iodide substrate)
- Assay type: biochemical
- MEASUREMENT_SETUP: compound 20 μM; n.a. = not active; mean ± SEM, n = 3
MEASURED_PROPERTY: Inhibition of EcBChE, % inhibition at 20 μM (%)
Give just the numeric value; % need not be written.

// below: answered compounds
compound="C=C(C)[c-]1cccc1.[Fe+2].c1ccc(-[c-]2cccc2)nc1 [5a]" value_reported=18.3
compound="[Fe+2].c1cc[cH-]c1.c1ccc2c(-[c-]3cccc3)c3ccccc3nc2c1 [1c]" value_reported=21.2
compound="C=C[c-]1cccc1.[Fe+2].c1ccc2c(-[c-]3cccc3)c3ccccc3nc2c1 [7c, 1-(Acridin-9-yl)-1′-Vinylferrocene]" value_reported=7.6

**Q:** // Inhibition of EcBChE, % inhibition at 20 μM lookup, key: [Fe+2].c1cc[cH-]c1.c1cc[cH-]c1 [Fc, ferrocene]
**A:** 6.7

**Q:** Same question, [Fe+2].c1cc[cH-]c1.c1ccc(-[c-]2cccc2)nc1 [1a] this time
**A:** 20.3

**Q:** Same question, [Fe+2].c1cc[c-](-c2ccnnc2)c1.c1cc[cH-]c1 [1e, 1-(pyridazin-4-yl)ferrocene] this time
**A:** 13.1

**Q:** Same question, C=C(C)[c-]1cccc1.[Fe+2].c1cc[cH-]c1 [compound 8, isopropenylferrocene, reference compound] this time
**A:** 3.9

* * *

- Test system: human neuroblastoma cell cultures (SH-SY5Y)
- EXPERIMENTAL_DETAILS: Cytotoxicity, MTT test, SH-SY5Y
- MEASUREMENT_SETUP: read-out: Cytotoxic activity, LC50, SH-SY5Y, 24 h, 1 to 1024 μM, mean ± SE, n = 3
MEASURED_PROPERTY: CC50

// below: answered compounds
compound="CC(=C(c1ccc(O)cc1)c1ccc(O)cc1)[c-]1cccc1.[Fe+2].c1ccc2nc(-[c-]3cccc3)ccc2c1 [compound 11, reference compound]" tested_on="human neuroblastoma cell cultures (SH-SY5Y)" measured_property=CC50 value_reported="57.8 µM"
compound=C=C[c-]1cccc1.[Fe+2].c1ccc(-c2cccc(-[c-]3cccc3)n2)nc1 tested_on="human neuroblastoma cell cultures (SH-SY5Y)" measured_property=CC50 value_reported="158 µM"
compound=C=C(C)[c-]1cccc1.[Fe+2].c1ccc(-c2cccc(-[c-]3cccc3)n2)nc1 tested_on="human neuroblastoma cell cultures (SH-SY5Y)" measured_property=CC50 value_reported="189 µM"
compound=[Fe+2].c1cc[cH-]c1.c1ccc(-c2cccc(-[c-]3cccc3)n2)nc1 tested_on="human neuroblastoma cell cultures (SH-SY5Y)" measured_property=CC50 value_reported="152 µM"
compound=C=C[c-]1cccc1.[Fe+2].c1ccc2nc(-[c-]3cccc3)ccc2c1 tested_on="human neuroblastoma cell cultures (SH-SY5Y)" measured_property=CC50 value_reported="287 µM"

**Q:** // CC50 lookup, key: `C=C(C)[c-]1cccc1.[Fe+2].c1ccc2nc(-[c-]3cccc3)ccc2c1`
**A:** 281 µM

**Q:** Same question, `[Fe+2].c1cc[cH-]c1.c1ccc2nc(-[c-]3cccc3)ccc2c1` this time
**A:** 243 µM

**Q:** Same question, CC(=C(c1ccc(O)cc1)c1ccc(O)cc1)[c-]1cccc1.[Fe+2].c1cc[cH-]c1 [compound 10, reference compound] this time
**A:** 43.4 µM
